Documented melting point across a set of compounds

O=S(=O)(Nc1ccc(Cl)cc1-c1nc2ccc(S(=O)(=O)N3CCOCC3)cc2[nH]1)c1ccc(Cl)cc1; 225 to 228 °C
Cc1ccc2c(O)cc(=O)oc2c1; 179 to 182 °C

Prompt line: What does the record list as melting point for COc1cn(-c2cc(F)c(N3CCOCC3)cc2F)nc(-c2ccnn2-c2ccccc2)c1=O ?
Response line: 211 to 212 °C

---

Documented melting point across a set of compounds

CC1CCC(Oc2cc(F)cc(C(=O)Nc3ccc(OCCN4CCOCC4)c4ccccc34)c2)CC1 (configuration not stated); 98 to 100 °C
COc1ccc(CN2C(=O)[C@@H](N3C(=O)c4ccccc4C3=O)[C@H]2CCc2ccccc2)c(OC)c1 (relative stereo); 148 to 150 °C

Prompt line: What does the record list as melting point for O=C(O)C(OCc1ccc(Cl)cc1)(C(F)(F)F)C(F)(F)F ?
Response line: 98 to 99 °C

Prompt line: What does the record list as melting point for COc1ccc2cc(CBr)ccc2c1Br ?
Response line: 92 to 94 °C

Prompt line: What does the record list as melting point for Cc1oc(-c2ccccc2)nc1COc1ccc(CO)cc1 ?
Response line: 128 to 129 °C

Prompt line: What does the record list as melting point for N#Cc1c[nH]c(Cl)c1-c1ccccc1 ?
Response line: 140 to 142 °C

Prompt line: What does the record list as melting point for O=C(Nc1ccc2[nH]ncc2c1)O[C@@H](c1cccc(C(F)(F)F)c1)[C@@H]1CCCCN1 ?
Response line: 190 °C

Prompt line: What does the record list as melting point for CCCCCCCCCCc1ccc(C[N+](=O)[O-])cc1 ?
Response line: 50 °C

Prompt line: What does the record list as melting point for FC(F)(F)C(c1ccc(Cl)cc1)C(c1ccccc1)c1ccc(OCC2CO2)cc1 (configuration not stated) ?
Response line: 141 to 144 °C

---

Documented melting point across a set of compounds

CCCCn1c(=O)c2c(NC)n[nH]c2n(CCNCc2ccccc2)c1=O; 198 to 200 °C
O=C(C=Cc1cccnc1)NCCCCN1CCCN(C(c2ccccc2)c2ccccc2)CC1; 149 to 151 °C
Cc1cc2c(cc1[N+](=O)[O-])C(C)(C)CCC2(C)C; 143 to 144 °C

Prompt line: What does the record list as melting point for CN1C(=O)N(c2ccc([N+](=O)[O-])c(C(F)(F)F)c2)C(=O)C1(C)C ?
Response line: 116 °C

Prompt line: What does the record list as melting point for Cc1cc(Nc2cncc(Nc3cccc(C#N)c3)n2)n[nH]1 ?
Response line: 260 to 262 °C

Prompt line: What does the record list as melting point for Cc1ccc2cc(C=O)ccc2c1 ?
Response line: 110 to 111 °C

Prompt line: What does the record list as melting point for CC(C)(C)C(=O)Nc1nc(Nc2cccc(Br)c2)c2c(n1)[nH]c1ccccc12 ?
Response line: 287 to 288 °C

Prompt line: What does the record list as melting point for CC(C)(CCCC(=O)O)c1ccc2c(c1)C(=O)c1cc(C(C)(C)CCCC(=O)O)ccc1C2=O ?
Response line: 145 to 147 °C

---

Documented melting point across a set of compounds

Examples from the recorded data:
C=C(Cn1ccnc1)c1cc(F)ccc1OCc1ccc(Cl)cc1Cl; 79 to 82 °C
CCOC(=O)N1CCN(c2nc3cccccc-3n2)CC1; 136 to 138 °C
COc1ccc2c(C(=O)C3CSC(c4cccnc4)N3)c[nH]c2c1 (configuration not stated); 86 to 88 °C
Cc1cc2c(cc1Oc1nnnn1-c1ccccc1)[C@@H](c1ccccc1)CN(C)CC2; 140 to 142 °C
COC(C)(C)C(=O)COc1ccc(Cl)cc1Cl; 45.5 to 47.5 °C
Nc1nc(N)c2c(I)nn(C3CC(O)C(CO)O3)c2n1 (configuration not stated); 154 °C
NC(=O)c1ccc(F)c(-c2cccc3cc(Cc4cccc(C(F)(F)F)c4)sc23)c1; 139 to 140 °C
CC(=O)c1ccc2c(c1O)CC(S(C)(=O)=O)CO2 (configuration not stated); 158 to 162 °C

Prompt line: What does the record list as melting point for NC(=O)c1nc(C2OC(CO)C(O)C2O)n[nH]1 (configuration not stated) ?
Response line: 193 to 195 °C

Prompt line: What does the record list as melting point for Cc1oncc1C(=O)N1CCCC1 ?
Response line: 51 to 53 °C

Prompt line: What does the record list as melting point for COc1ccc(-n2c3ccccc3c3cc(C(C#N)=C(C#N)c4cc(C(F)(F)F)cc(C(F)(F)F)c4)ccc32)cc1 ?
Response line: 170 to 172 °C

Prompt line: What does the record list as melting point for OCC1(Nc2nc(-c3ccc(Br)cc3)cs2)CC1 ?
Response line: 129 to 131 °C

Prompt line: What does the record list as melting point for Cc1nnc(-c2ccc3occ(-c4ccc(CS(C)(=O)=O)cc4)c3c2)o1 ?
Response line: 250 to 251 °C

Prompt line: What does the record list as melting point for Cc1nc(Cl)c([N+](=O)[O-])c(Cl)n1 ?
Response line: 42 to 44 °C

Prompt line: What does the record list as melting point for COc1ccc(-c2cc(C)cn2-c2ccc(S(C)(=O)=O)cc2)cc1 ?
Response line: 159 to 161 °C

Prompt line: What does the record list as melting point for c1csc(-c2cccc3c(-c4cccs4)cccc23)c1 ?
Response line: 193 to 195 °C

Prompt line: What does the record list as melting point for CCOc1cccc(-c2cc3n(n2)CCc2ccccc2-3)c1 ?
Response line: 103 to 104 °C

Prompt line: What does the record list as melting point for CC(=O)N(C(C)=O)C(C)=C1CC2C3CC4C2C4C13 (configuration not stated) ?
Response line: 112 to 128 °C

Prompt line: What does the record list as melting point for O=c1c[n+]([O-])c2cc(Cl)c(Cl)cc2[nH]1 ?
Response line: 278 to 280 °C

Prompt line: What does the record list as melting point for COC(=O)C1(n2c(=O)[nH]c3ccccc3c2=O)CCCCC1 ?
Response line: 145 to 147 °C

Prompt line: What does the record list as melting point for COc1nc(C)cnc1NS(=O)(=O)c1cccnc1-c1ccc(CCC(=O)O)cc1 ?
Response line: 166 to 168 °C

Prompt line: What does the record list as melting point for CC(C)N(CCC(=O)OC1c2ccccc2C(=O)N1c1ccc2ccc(Cl)nc2n1)C(C)C (configuration not stated) ?
Response line: 135 °C

Prompt line: What does the record list as melting point for COc1ccc(NN=C(Cl)C(C)=O)cc1 ?
Response line: 114 to 116 °C

Prompt line: What does the record list as melting point for O=C1NC(=O)C(Nc2ccc(Cl)c3ccccc23)S1 (configuration not stated) ?
Response line: 205 to 206 °C

Prompt line: What does the record list as melting point for COc1c(C)cc2c(c1C)Cc1c-2[nH]c2ccccc12 ?
Response line: 177 °C

Prompt line: What does the record list as melting point for CCc1cnc(C2=NC(C)(C(C)C)C(=O)N2)c(C(=O)NCCCCCC(=O)O)c1 (configuration not stated) ?
Response line: 76 to 81 °C

---

Documented melting point across a set of molecules

Examples from the recorded data:
COc1ccc2c(c1)c(CC(=O)O[C@H]1CO[C@H]3[C@H]1OC[C@H]3O[N+](=O)[O-])c(C)n2C(=O)c1ccc(Cl)cc1; 159 to 160 °C
Cc1c(Nc2c(C#N)cnc3sc(C(=O)O)cc23)ccc2[nH]ccc12; 287 °C
C=CC(=O)OCCN(CCOC(=O)C=C)c1ccc(N=Nc2ccc([N+](=O)[O-])cc2)cc1; 91 to 93 °C
O=S1(=O)N=C(O)C(c2ccccc2)=N1; 202 to 204 °C
COc1ccc(C2(CCO)CCN(C(=O)c3cc(OC)c(OC)c(OC)c3)C2)cc1OC (configuration not stated); 60 to 62 °C
N#CC(c1ccccc1)(c1ccccc1)C1CCN(C(=O)Oc2ccccc2)C1 (configuration not stated); 154 to 155 °C

Next up:
Prompt line: What does the record list as melting point for C#CCN(C(=O)C(F)(F)F)[C@H]1CCc2ccc([N+](=O)[O-])cc21 ?
Response line: 83 to 85 °C

---

Documented melting point across a set of compounds

Examples from the recorded data:
CC1NC(=O)NN=C1c1ccccc1OCc1ccccc1 (stereo not given); 200 to 203 °C
CC(=O)Nc1ccc2c(c1)CC2OC#N (stereo not given); 163 to 168 °C
CCCC=NNc1cc2c(nn1)CCN(C(=O)OCC)C2; 142 to 146 °C
CCOC(C)O[C@H]1C(=O)N(C(=O)Nc2ccccc2)[C@H]1c1ccccc1 (stereo not given in full); 152 to 155 °C

Next up:
Prompt line: What does the record list as melting point for Cc1ccc(-c2nc(C(F)(F)F)cn2-c2ccc(S(C)(=O)=O)cc2)nc1 ?
Response line: 196 °C

---

Measurement label: melting point

Examples from the recorded data:
O=C(O)CCc1cnoc1-c1cc(Cl)cc(Cl)c1; 143 to 144 °C
Cn1nc(Cl)cc(Br)c1=O; 107 to 108 °C
CCOC(=O)C=Cc1ccc(OCc2ccccn2)cc1; 95 °C
N#CCN1CCC(c2noc3cc(F)ccc23)CC1; 130 to 132 °C
CCCCCCC(C(=O)O)n1cnc([N+](=O)[O-])c1 (stereo not given); 112 to 114 °C

Prompt line: What does the record list as melting point for NS(=O)(=O)OCCOc1ccccc1 ?
Response line: 89 to 91 °C

Prompt line: What does the record list as melting point for CCCCCCCCCCCCOc1ccc(C#N)cc1-c1cc(C#N)ccc1OCCCCCCCCCCCC ?
Response line: 168 to 170 °C

Prompt line: What does the record list as melting point for Cc1cc(=O)oc2cccc(OC(=S)N(C)C)c12 ?
Response line: 166 to 168 °C

Prompt line: What does the record list as melting point for N#Cc1ccc(CCCCCC(=O)O)cc1 ?
Response line: 61 to 62 °C

Prompt line: What does the record list as melting point for CC1(C)CCC(C)(C)c2cc(C=O)c(Br)cc21 ?
Response line: 114 °C
